Numbers sourced from paper PMC6359039.

# PROCEDURE DETAILS: Plasma pharmacokinetics in rats after i.v. and i.g. dosing (UPLC-FLR)
# Assay type: in vivo, Sprague Dawley rats
# EXPERIMENTAL CONDITIONS: both sexes, Sprague Dawley, plasma, iv; rat, 4 mg/kg i.v., mean ± SD, n = 6
OBSERVABLE: AUC(0-t) (ng·h/mL)
Number in ng·h/mL, nothing else.

get_value(item= CC[C@@]12CC(C(=O)OC)=C3Nc4cc5c(cc4[C@@]34CCN(C[C@H]3O[C@H]31)[C@@H]24)[C@@H]1C(O5)[C@@H](O)[C@@]2(CC)CC(C(=O)OC)=C3Nc4cc(OC)ccc4[C@@]34CCN1[C@@H]24 (stereo partly shown) [10-dehydroxyl-12-demethoxy-conophylline, 10-Dehydroxyl-12-demethoxy-conophylline] , readout=AUC(0-t)) returns 988

====

# PROCEDURE DETAILS: Plasma protein binding by equilibrium dialysis, rat plasma
# Type: in vitro ADME
# EXPERIMENTAL CONDITIONS: Sprague Dawley, 5.00 µg/mL, equilibrium dialysis, read-out: protein binding degree (converted)
OBSERVABLE: fraction unbound at 5 µg/mL
I'd appreciate a reply containing only the number, no unit.

The compound listed as CC[C@@]12CC(C(=O)OC)=C3Nc4cc5c(cc4[C@@]34CCN(C[C@H]3O[C@H]31)[C@@H]24)[C@@H]1C(O5)[C@@H](O)[C@@]2(CC)CC(C(=O)OC)=C3Nc4cc(OC)ccc4[C@@]34CCN1[C@@H]24 (stereo partly shown) [10-dehydroxyl-12-demethoxy-conophylline, 10-Dehydroxyl-12-demethoxy-conophylline] shows fraction unbound at 5 µg/mL equal to 0.188

====

# PROCEDURE DETAILS: Plasma pharmacokinetics in rats after i.v. and i.g. dosing (UPLC-FLR)
# Type: in vivo, Sprague Dawley rats
# EXPERIMENTAL CONDITIONS: both sexes, Sprague Dawley, plasma, iv; rat, 12 mg/kg i.v., mean ± SD, n = 6
OBSERVABLE: clearance
Answer format reminder: number followed by unit.

get_value(item= CC[C@@]12CC(C(=O)OC)=C3Nc4cc5c(cc4[C@@]34CCN(C[C@H]3O[C@H]31)[C@@H]24)[C@@H]1C(O5)[C@@H](O)[C@@]2(CC)CC(C(=O)OC)=C3Nc4cc(OC)ccc4[C@@]34CCN1[C@@H]24 (stereo partly shown) [10-dehydroxyl-12-demethoxy-conophylline, 10-Dehydroxyl-12-demethoxy-conophylline] , readout=clearance) returns 41 mL/min/kg

====

# PROCEDURE DETAILS: Plasma pharmacokinetics in rats after i.v. and i.g. dosing (UPLC-FLR)
# Assay type: in vivo, Sprague Dawley rats
# EXPERIMENTAL CONDITIONS: both sexes, Sprague Dawley, rat, plasma, iv, 4 mg/kg, 4 mg/kg i.v., mean ± SD, n = 6, read-out: t1/2β
OBSERVABLE: half-life (h)
Lab book: enter the figure in h, no units written.

response.value for CC[C@@]12CC(C(=O)OC)=C3Nc4cc5c(cc4[C@@]34CCN(C[C@H]3O[C@H]31)[C@@H]24)[C@@H]1C(O5)[C@@H](O)[C@@]2(CC)CC(C(=O)OC)=C3Nc4cc(OC)ccc4[C@@]34CCN1[C@@H]24 (stereo partly shown) [10-dehydroxyl-12-demethoxy-conophylline, 10-Dehydroxyl-12-demethoxy-conophylline] (field: half-life) = 1.14
